METHOD SUMMARY: DRUGMATRIX: Purinergic P2X radioligand binding (ligand: [3H] alpha, beta-Methylene-ATP)
Assay type: cell membranes, Oryctolagus cuniculus, New Zealand albino, Urinary bladder, Membrane
MEASUREMENT CONDITIONS: Not Active = under 50% inhibition at 10 µM
MEASURE NAME: Ki

The examples below pair each entry with its known result.
CC(=O)OCC(COC(C)=O)OC(C)=O : Not Active
O=C(O)CCNC(=O)c1ccc(/N=N/c2ccc(O)c(C(=O)O)c2)cc1 [BALSALAZIDE] : Not Active
C[N+](C)(C)CCOC(=O)CCC(=O)OCC[N+](C)(C)C.[Cl-].[Cl-] [SUCCINYLCHOLINE CHLORIDE] : Not Active
COc1ccccc1N : Not Active

Consider the record given below.
Ask: Return Ki for the following compound: O=C(O)CC(O)(CC(=O)O)C(=O)O
Result: Not Active

###

TEST TARGET: Melanocortin receptor 3 (Homo sapiens); note: in other assays of this panel Not Active means under 50% inhibition at 10 µM
Sequence (P41968 whole entry): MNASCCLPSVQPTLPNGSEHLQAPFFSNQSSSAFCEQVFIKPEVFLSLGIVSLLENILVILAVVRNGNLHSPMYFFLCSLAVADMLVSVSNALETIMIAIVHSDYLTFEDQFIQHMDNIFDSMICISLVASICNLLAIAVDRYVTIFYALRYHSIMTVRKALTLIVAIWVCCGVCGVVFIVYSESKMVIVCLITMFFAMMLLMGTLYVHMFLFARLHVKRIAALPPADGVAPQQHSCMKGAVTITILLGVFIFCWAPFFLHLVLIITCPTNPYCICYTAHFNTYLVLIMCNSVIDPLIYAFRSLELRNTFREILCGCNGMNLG
Assay type: cell membranes, Membrane
MEASUREMENT CONDITIONS: hek293
MEASURE NAME: IC50

The examples below pair each entry with its known result.
COc1cccc2c1C(=O)c1c(O)c3c(c(O)c1C2=O)C[C@@](O)(C(C)=O)C[C@@H]3O[C@H]1C[C@H](N)[C@H](O)[C@H](C)O1 : Not Active
CC(=O)OCC(=O)[C@@]1(O)CC[C@H]2[C@@H]3CCC4=CC(=O)CC[C@]4(C)[C@@]3(F)[C@@H](O)C[C@@]21C [FLUDROCORTISONE ACETATE] : Not Active
O=C(O)c1cc(-c2ccc(F)cc2F)ccc1O : Not Active
O=C(O)CCCCC1CCSS1 (stereo not drawn) : Not Active
C[C@]12C=CC(=O)C=C1CC[C@H]1[C@@H]3C[C@@H](O)[C@](O)(C(=O)CO)[C@@]3(C)C[C@H](O)[C@@]12F : Not Active

Ask: Return IC50 for the following molecule: O=C(O)P(=O)(O)O
Result: Not Active

Ask: Return IC50 for the following molecule: O=c1[nH]c(=O)n([C@H]2C[C@H](O)[C@@H](CO)O2)cc1F
Result: Not Active

Ask: Return IC50 for the following molecule: O=C(O)COc1ccc(C(=O)c2cccs2)c(Cl)c1Cl
Result: Not Active

###

A collection of molecules and their measured pKi
TEST TARGET: Muscarinic acetylcholine receptor M2 (Homo sapiens, UniProt P08172); note: in other assays of this panel Not Active means under 50% inhibition at 10 µM
Sequence (P08172 whole entry): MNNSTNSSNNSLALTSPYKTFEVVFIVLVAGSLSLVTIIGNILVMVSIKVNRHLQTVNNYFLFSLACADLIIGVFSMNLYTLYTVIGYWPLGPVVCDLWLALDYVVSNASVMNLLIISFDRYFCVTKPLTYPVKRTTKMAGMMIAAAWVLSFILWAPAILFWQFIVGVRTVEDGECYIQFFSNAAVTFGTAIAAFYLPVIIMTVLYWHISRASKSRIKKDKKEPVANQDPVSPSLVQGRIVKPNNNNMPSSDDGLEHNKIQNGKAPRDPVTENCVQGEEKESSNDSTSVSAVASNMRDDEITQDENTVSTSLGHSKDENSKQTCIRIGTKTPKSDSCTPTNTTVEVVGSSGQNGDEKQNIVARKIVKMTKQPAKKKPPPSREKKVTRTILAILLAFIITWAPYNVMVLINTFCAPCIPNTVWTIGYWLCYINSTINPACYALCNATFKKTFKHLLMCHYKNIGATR
Format: cell membranes, CHO-K1, Membrane
MEASUREMENT CONDITIONS: read-out: Ki
By convention, pKi is the negative base-10 log of a molar concentration.

The examples below pair each entry with its known result.
CN1CCN(C(c2ccccc2)c2ccccc2)CC1 : 6.39
Clc1ccc(COC(Cn2ccnc2)c2ccc(Cl)cc2Cl)c(Cl)c1 (stereo not given) : 5.81

Ask: Return pKi for the following molecule: CN1CCC(=C2c3ccccc3CC(=O)c3sccc32)CC1
Result: 6.53

Ask: Return pKi for the following molecule: CN1CCCC(CN2c3ccccc3Sc3ccccc32)C1 (stereo not given)
Result: 6.70

Ask: Return pKi for the following molecule: CCN(CC)CCCC(C)Nc1c2ccc(Cl)cc2nc2ccc(OC)cc12 (stereo not given)
Result: 6.46

###

TEST TARGET: Delta-type opioid receptor (Homo sapiens, UniProt P41143); note: in other assays of this panel Not Active means under 50% inhibition at 10 µM
Sequence (P41143 whole entry): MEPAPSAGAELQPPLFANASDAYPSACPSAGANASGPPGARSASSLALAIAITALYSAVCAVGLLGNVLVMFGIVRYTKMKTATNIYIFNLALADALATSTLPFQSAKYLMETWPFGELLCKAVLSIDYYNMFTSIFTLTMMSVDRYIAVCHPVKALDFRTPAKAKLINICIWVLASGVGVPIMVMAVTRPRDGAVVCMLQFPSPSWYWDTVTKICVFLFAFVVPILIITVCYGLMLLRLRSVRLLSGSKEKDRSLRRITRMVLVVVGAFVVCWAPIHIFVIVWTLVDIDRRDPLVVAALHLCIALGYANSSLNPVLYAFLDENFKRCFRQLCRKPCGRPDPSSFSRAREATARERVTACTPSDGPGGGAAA
Type: cell membranes, HEK293, Membrane
MEASUREMENT CONDITIONS: hek293
MEASURE NAME: IC50

CN(C)CCC=C1c2ccccc2CCc2ccccc21 : Not Active
CCOC(=O)c1ncn2c1CN(C)C(=O)c1cc(F)ccc1-2 : Not Active
CCCCC1=NC2(CCCC2)C(=O)N1Cc1ccc(-c2ccccc2-c2nnn[nH]2)cc1 : Not Active
NS(=O)(=O)c1cc(C2(O)NC(=O)c3ccccc32)ccc1Cl (centres undefined) : Not Active
NC(=O)c1cccnc1 [NIACINAMIDE] : Not Active
C[C@]12C=CC(=O)C=C1CC[C@@H]1[C@@H]2C(=O)C[C@@]2(C)[C@H]1CC[C@]2(O)C(=O)CO : Not Active

Ask: Return IC50 for the following molecule: CC(=N)S [THIOACETAMIDE]
Result: Not Active

Ask: Return IC50 for the following molecule: COc1cccc2c1C(=O)c1c(O)c3c(c(O)c1C2=O)C[C@@](O)(C(C)=O)C[C@@H]3O[C@H]1C[C@H](N)[C@H](O)[C@H](C)O1
Result: Not Active

Ask: Return IC50 for the following molecule: CC1CCC(NC(=O)N(CCCl)N=O)CC1 (centres undefined)
Result: Not Active

###

METHOD SUMMARY: DRUGMATRIX: Glutamate, NMDA, Phencyclidine radioligand binding (ligand: [3H] TCP)
Format: cell membranes, Rattus norvegicus, Wistar, Cerebral cortex, Membrane
MEASUREMENT CONDITIONS: Not Active = under 50% inhibition at 10 µM; read-out: Ki
MEASURE NAME: Ki

Ask: Return Ki for the following molecule: NC12CC3CC(CC(C3)C1)C2
Result: 21.7 µM

###

METHOD SUMMARY: DRUGMATRIX: Sodium/nucleoside co-transporter radioligand binding (ligand: nitrobenzylthioinosine)
Assay type: cell membranes, Cavia porcellus, Dunkin-Hartley, Cerebral cortex, Membrane
MEASUREMENT CONDITIONS: Not Active = under 50% inhibition at 10 µM
MEASURE NAME: IC50

The examples below pair each entry with its known result.
O=C(c1ccccc1F)N1CCC(Cc2ccccc2)CC1 : Not Active
CC[C@H]1[C@@H]2C[C@H]3[C@@H]4N(C)c5ccccc5[C@]45C[C@@H]([C@@H]2[C@H]5O)N3[C@@H]1O [AJMALINE] : Not Active
NC(=O)c1cccnc1 [NIACINAMIDE] : Not Active
CN(C)C(=N)NC(=N)N [METFORMIN] : Not Active
CCCNC(C)C(=O)Nc1ccccc1C (stereo not drawn) [PRILOCAINE] : Not Active

Ask: Return IC50 for the following compound: CC(=O)OCC(=O)[C@@]12OC(C)(C)O[C@@H]1C[C@H]1[C@@H]3C[C@H](F)C4=CC(=O)C=C[C@]4(C)[C@@]3(F)[C@@H](O)C[C@@]12C [FLUOCINONIDE]
Result: Not Active

Ask: Return IC50 for the following compound: COc1ccc2c(c1OC)C(=O)O[C@@H]2[C@H]1c2c(cc3c(c2OC)OCO3)CCN1C [NOSCAPINE]
Result: Not Active

Ask: Return IC50 for the following compound: CCCCC1=NC2(CCCC2)C(=O)N1Cc1ccc(-c2ccccc2-c2nnn[nH]2)cc1 [IRBESARTAN]
Result: Not Active

###

METHOD SUMMARY: DRUGMATRIX: Phosphodiesterase PDE4 enzyme inhibition (substrate: [3H]cAMP + cAMP)
MEASUREMENT CONDITIONS: u-937; Not Active = under 50% inhibition at 10 µM; read-out: IC50
A collection of compounds and their measured IC50
I only need the number, in µM, no unit after it.

Ask: Return IC50 for the following compound: O=c1c(-c2ccc(O)cc2)coc2cc(O)cc(O)c12
Result: 10.9

Ask: Return IC50 for the following compound: CCOc1nc2cccc(C(=O)O)c2n1Cc1ccc(-c2ccccc2-c2nnn[nH]2)cc1
Result: 0.276

###

TEST TARGET: 5-hydroxytryptamine receptor 2C (Homo sapiens)
Sequence (P28335 whole entry): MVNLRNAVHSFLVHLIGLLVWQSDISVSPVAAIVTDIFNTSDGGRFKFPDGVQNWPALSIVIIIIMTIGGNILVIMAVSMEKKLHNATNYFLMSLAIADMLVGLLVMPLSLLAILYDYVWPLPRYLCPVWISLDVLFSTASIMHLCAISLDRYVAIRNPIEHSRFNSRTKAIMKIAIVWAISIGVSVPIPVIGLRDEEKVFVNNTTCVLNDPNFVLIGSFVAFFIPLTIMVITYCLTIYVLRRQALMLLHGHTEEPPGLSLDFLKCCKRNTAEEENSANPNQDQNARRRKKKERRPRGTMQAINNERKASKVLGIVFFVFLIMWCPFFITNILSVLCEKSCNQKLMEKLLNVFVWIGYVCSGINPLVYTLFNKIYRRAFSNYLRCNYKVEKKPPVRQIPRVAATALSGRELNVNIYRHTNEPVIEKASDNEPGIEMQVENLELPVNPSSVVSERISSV
METHOD SUMMARY: DRUGMATRIX: Serotonin (5-Hydroxytryptamine) 5-HT2C radioligand binding (ligand: [3H] Mesulergine)
Assay type: cell membranes, CHO-K1, Membrane
MEASUREMENT CONDITIONS: Not Active = under 50% inhibition at 10 µM; read-out: IC50
MEASURE NAME: IC50 (µM)
I only need the number, in µM, no unit after it.

The examples below pair each entry with its known result.
CN1[C@@H]2CC[C@H]1C[C@@H](OC(c1ccccc1)c1ccccc1)C2 : 0.061
Clc1ccc(COC(Cn2ccnc2)c2ccc(Cl)cc2Cl)c(Cl)c1 (centres undefined) : 5.31
O=c1c(-c2ccc(O)cc2)coc2cc(O)cc(O)c12 : 14.9
N=C(N)c1ccc(OCCCCCOc2ccc(C(=N)N)cc2)cc1 : 3.28
CC(C)C[C@H]1C(=O)N2CCC[C@H]2[C@]2(O)O[C@](NC(=O)[C@@H]3C=C4c5cccc6[nH]cc(c56)C[C@H]4N(C)C3)(C(C)C)C(=O)N12 : 0.147

Ask: Return IC50 for the following compound: CN1CCC(=C2c3ccccc3CC(=O)c3sccc32)CC1
Result: 0.16

Recorded values, source ChEMBL document CHEMBL1909046.
